From various publications: IC50 for ROCK2 (Homo sapiens).
outcome-measure: IC50 (nM)

Recorded results for 2 compounds are shown here.
O=C(CCOc1ccccc1)Nc1ccc2c(c1)OCc1cnccc1-2 = 82.2
COc1cc(C(=O)NCc2ccc(F)cc2Cl)ccc1-c1cn[nH]c1 = 2.54

a: COc1cccn2nc(NC(=O)Cc3ccc(Oc4ncccc4C(N)=O)cc3)nc12
b: NCC(C(=O)Nc1cc2ccncc2s1)c1ccc(CCO[N+](=O)[O-])cc1 (stereo not shown)
c: [H][C@]1(Oc2c(C(N)=O)sc3ccccc23)C[C@]2(C[C@@H](NC(=O)c3cnn4c(C5CC5)c(OCC(C)(C)O)ccc34)C2)C1 (stereo partly shown)
d: NC(=O)c1cccnc1Oc1ccc(CC(=O)Nc2nc3ccc(F)cn3n2)cc1F
e: COc1cc(N2CCC3(CCN(C(=O)c4ccc(N5CCN(Cc6ccccc6Cl)CC5)cc4)CC3)C2=O)ccc1-c1cn[nH]c1
# rank_down: sort by IC50, max first Your reply should list the labels following the order given in the request.
d, a, c, b, e

====

pIC50: −log10 of the molar value.
// merged dataset of pIC50 values, system = ROCK2 (Homo sapiens, UniProt O75116), multiple refs
outcome-measure: pIC50

Field: example entries. Status: answers known.
Cn1ccc(-c2csc(NC(=O)Cc3ccc(Oc4ncccc4C(N)=O)c(F)c3)n2)cc1=O = 6.39
COc1cc(N2CCC3(CCN(C(=O)c4ccc(-n5ccccc5=O)cc4)CC3)C2=O)ccc1-c1cn[nH]c1 = 8.15
Cc1c(C(=O)N[C@H]2C[C@]3(C2)C[C@H](Oc2nn(C)cc2C(N)=O)C3)cnn1-c1ccc(Cl)cc1 (stereo partly shown) = 6.95
Cn1ncc2cc(C(N)=O)c(O[C@H]3C[C@@]4(C[C@H](NC(=O)c5cc(-c6ccc(C#N)cc6)n(C(F)F)n5)C4)C3)nc21 (stereo partly shown) = 8.57
Cc1cccc(CC(=O)Nc2ccc3c(c2)OCc2cnccc2-3)c1 = 7.13

I: CC(C)NC(=O)c1cc2ccc(-c3nc(Nc4ccc5[nH]ncc5c4)c4sccc4n3)cc2[nH]1
II: NC(=O)c1cccnc1O[C@H]1C[C@@]2(C[C@H](Nc3cnc4ccc(F)cc4n3)C2)C1 (stereo partly shown)
Could you tell me which of I and II has the lower pIC50 reading? To answer, give the label that identifies your chosen option.
II

====

// cross-source set; read-out = IC50; system = ROCK2 (Homo sapiens, UniProt O75116)

COc1cc(F)cc(Cn2c(CO)nn(-c3ccc(-c4cn[nH]c4)cc3)c2=O)c1 = < 5 nM
CC(=O)NCc1cccc(CN2CCC[C@@H](Nc3ccc4[nH]ncc4c3)C2)c1 = 341 nM
COc1cccc(CN2CCN(c3ccc(-c4ccnc(N)n4)cc3)C2=O)c1 = 20.1 to 200 nM

Summary for this compound, `O=C(N1CCN(C2COC2)CC1)N1Cc2ccc(-c3nccc(Nc4ccc(-c5cn[nH]c5)cc4)n3)cc2C1` : IC50 is 140 nM

// IC50 value for `COc1cccc(CN2C(=O)N(c3ccc(-c4cn[nH]c4)cc3)CC23CCOCC3)c1` : < 3 nM

Entry CC1(C)c2ccccc2NC12CCN(c1ccc(-c3cn[nH]c3)cc1)C2=O (centres unmarked) ; IC50 = < 3 nM

Noted for O=C(NC1CC2(C1)CC(c1n[nH]c(=O)c3ccccc13)C2)N1Cc2ccncc2C1 (centres unmarked) : its IC50 reads 15.1 to 100 nM

The reported value for O=C1C(Oc2cccc(OC(F)(F)F)c2)CCN1c1ccc(-c2n[nH]c(=O)c3ccccc23)cc1 (single isomer, unassigned) in terms of IC50 is < 10 nM
